- TARGET UNDER TEST: T1, PyVP1-WW150 (mouse polyoma virus; Mus musculus …)
- T1 construct: WW domain inserted between VP1 positions 148 and 149; Soluble pentamer after intein cleavage; also called PyVP1-WW150 variant; PyVP1-WW150 protein
- PROTOCOL SUMMARY: SPR (Biacore X), peptide on CM5 chip, 10 mM HEPES, 1 mM EDTA, 150 mM NaCl, pH 7.2, 25 C, protein 5 to 50 nM

BINDER	Kd
CSGPPPPPPPPLP (also called CSGP8LP; proline peptide) [synthetic proline-rich peptide Cys-Ser-Gly-Pro-Pro-Pro-Pro-Pro-Pro-Pro-Pro-Leu-Pro]	5 nM
